target: K562-αvβ3 (LAP-b1) (Homo sapiens, UniProt P05106+P06756); construct: expressed in transfected cells; host or cells: K562; experiment: Cell Adhesion Assay αvβ3; format: cell-based; conditions: K562-αvβ3 cells, ligand LAP-b1, 2 mM MgCl2, BCECF-AM fluorescence; read-out: mean affinity (pIC50) αvβ3 (converted)
Sequence (P06756 31-889 limits assumed): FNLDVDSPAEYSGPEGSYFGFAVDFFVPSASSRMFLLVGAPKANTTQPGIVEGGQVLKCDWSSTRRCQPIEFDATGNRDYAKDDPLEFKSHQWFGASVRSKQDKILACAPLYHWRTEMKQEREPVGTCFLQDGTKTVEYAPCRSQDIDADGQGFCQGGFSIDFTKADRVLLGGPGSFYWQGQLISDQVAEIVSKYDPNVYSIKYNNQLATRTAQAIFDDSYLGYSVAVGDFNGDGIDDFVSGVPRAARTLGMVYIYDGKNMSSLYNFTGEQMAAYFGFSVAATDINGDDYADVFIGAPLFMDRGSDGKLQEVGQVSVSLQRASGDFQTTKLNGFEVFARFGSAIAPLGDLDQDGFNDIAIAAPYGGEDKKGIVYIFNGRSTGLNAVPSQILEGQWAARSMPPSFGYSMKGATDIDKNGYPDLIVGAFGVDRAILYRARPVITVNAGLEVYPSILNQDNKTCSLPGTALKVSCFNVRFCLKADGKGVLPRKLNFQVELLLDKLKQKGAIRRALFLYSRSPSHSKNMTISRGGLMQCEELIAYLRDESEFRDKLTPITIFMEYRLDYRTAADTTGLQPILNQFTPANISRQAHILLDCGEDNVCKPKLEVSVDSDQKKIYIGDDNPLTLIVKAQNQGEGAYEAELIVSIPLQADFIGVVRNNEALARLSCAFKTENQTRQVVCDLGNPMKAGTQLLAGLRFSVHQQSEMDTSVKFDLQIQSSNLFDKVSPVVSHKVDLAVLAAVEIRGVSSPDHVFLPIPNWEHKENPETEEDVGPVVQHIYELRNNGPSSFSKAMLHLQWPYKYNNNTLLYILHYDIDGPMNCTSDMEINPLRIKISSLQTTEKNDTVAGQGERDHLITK
Sequence (P06756 891-1048 limits assumed): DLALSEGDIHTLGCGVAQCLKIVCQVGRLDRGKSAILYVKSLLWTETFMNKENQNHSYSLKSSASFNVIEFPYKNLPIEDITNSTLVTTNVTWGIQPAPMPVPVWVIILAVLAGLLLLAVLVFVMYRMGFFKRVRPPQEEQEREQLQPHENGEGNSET
Sequence (P05106 27-788): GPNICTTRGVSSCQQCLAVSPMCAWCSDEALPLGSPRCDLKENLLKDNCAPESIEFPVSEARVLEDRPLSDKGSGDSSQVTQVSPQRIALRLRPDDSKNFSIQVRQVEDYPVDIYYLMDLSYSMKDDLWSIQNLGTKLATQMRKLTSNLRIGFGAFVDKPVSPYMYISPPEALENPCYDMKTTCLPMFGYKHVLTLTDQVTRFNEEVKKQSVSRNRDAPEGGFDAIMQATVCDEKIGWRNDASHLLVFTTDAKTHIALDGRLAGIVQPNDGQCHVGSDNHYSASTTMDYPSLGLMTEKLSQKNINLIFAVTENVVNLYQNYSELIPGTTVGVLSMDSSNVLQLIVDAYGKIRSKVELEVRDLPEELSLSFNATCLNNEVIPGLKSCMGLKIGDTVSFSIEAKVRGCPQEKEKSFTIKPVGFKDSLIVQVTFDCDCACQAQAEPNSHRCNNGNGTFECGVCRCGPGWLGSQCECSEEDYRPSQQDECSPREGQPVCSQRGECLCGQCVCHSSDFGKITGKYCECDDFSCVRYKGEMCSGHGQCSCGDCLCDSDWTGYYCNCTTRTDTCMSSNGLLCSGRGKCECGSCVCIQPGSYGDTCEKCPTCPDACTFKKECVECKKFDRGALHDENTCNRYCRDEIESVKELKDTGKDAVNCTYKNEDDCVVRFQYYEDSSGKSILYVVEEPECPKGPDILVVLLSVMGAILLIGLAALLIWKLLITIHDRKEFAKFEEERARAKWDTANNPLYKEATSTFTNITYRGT
attribute.measured: IC50 (µM)

Use the examples below as a reference point.
{"molecule": "Cc1ccn(-c2cc(C(CC(=O)O)CN3CC[C@@H](CCc4ccc5c(n4)NCCC5)C3)cc(N3CCOCC3)c2)n1 (mixture of isomers)", "IC50 [µM]": 6.31}
{"molecule": "O=C(O)C[C@H](CN1CC[C@@H](CCc2ccc3c(n2)NCCC3)C1)c1cc(N2CCOCC2)cc(-n2cccn2)c1", "IC50 [µM]": 3.98}
{"molecule": "O=C(O)C[C@H](CN1CC[C@@H](CCc2ccc3c(n2)NCCC3)C1)c1cc(-c2ccn[nH]2)cc(N2CCOCC2)c1", "IC50 [µM]": 1.26}

P. O=C(O)C[C@H](CN1CC[C@@H](CCc2ccc3c(n2)NCCC3)C1)c1cc(-c2cn[nH]c2)cc(N2CCOCC2)c1
Q. Cc1cc(-c2cc([C@H](CC(=O)O)CN3CC[C@@H](CCc4ccc5c(n4)NCCC5)C3)cc(N3CCOCC3)c2)[nH]n1
Problem: Form field 'greater IC50' accepts P or Q ; which applies? // caller expects the label of the chosen entry
Solution: P
